This collection of values is drawn from paper PMC12040169.

experiment: in vitro; settings: human, hela cells, % viability
endpoint: viability at 28.5 h, 10 µM (%)
Field format: number, assumed %, no unit text.

// below: answered compounds
| compound | recorded.number |
| --- | --- |
| Cc1cc(NC(=O)c2ccc3[nH]ccc3c2)c2ccccc2n1 | 104 |
| CCN(CC)C(=O)CCn1c(-c2cccnc2)cc2cccnc21 | 106 |
| O=C(c1cnccn1)N1CCC(Cc2ccccc2)CC1 | 92.6 |

The recorded viability at 28.5 h, 10 µM for entry CCc1c(C(=O)Nc2ccc(C(F)(F)F)cc2)cnc2ncnn12 equals 90.4

The recorded viability at 28.5 h, 10 µM for entry N/C(=N\OC(=O)COc1cccc2ccccc12)c1ccc(Cl)cc1 equals 88.4
